- target_desc: human α-thrombin (Homo sapiens)
Where a name gives a salt, the structure may show the parent alone.
attribute_measured: pKi
Please keep in mind that pKi is minus log10 of the molar concentration; only the number is needed.

Value of pKi reported for the molecule Cc1cnc(NCC(F)(F)c2ccccc2)c(=O)n1CC(=O)NCC1CNC(=N)NO1 (centres unmarked) [Example 2, Trifluoroacetate] is 8.30
